Test: Metabolic stability in human liver microsomes assessed as residue remaining at 10 uM incubated for 20 and 40 mins
Format: ADME, Microsome
Conditions: read-out: Stability
Response field label takes class 1 when remaining at 40 min, 10 µM is strictly below 20% and class 0 in all other cases.

Dear reviewer, please state whether CCS(=O)(=O)Nc1ccc(Oc2cc(F)c(F)c(F)c2)c(-c2cn(C)c(=O)c3cncn23)c1 has remaining at 40 min, 10 µM strictly beneath 20%.
class 0

Confirm or reject: remaining at 40 min, 10 µM of CCS(=O)(=O)Nc1ccc(Oc2ccc(-c3c(C)noc3C)cc2)c(-c2cn(C)c(=O)c3cncn23)c1 lies strictly below 20%
class 0

Problem: For the molecule CCS(=O)(=O)Nc1ccc(Oc2ccc(F)cc2F)c(-c2cn(C)c(=O)c3cncn23)c1 , is remaining at 40 min, 10 µM under 20%?
class 0

Would you kindly verify if remaining at 40 min, 10 µM of CCS(=O)(=O)Nc1ccc(Oc2cc(F)ccc2C)c(-c2cn(C)c(=O)c3cncn23)c1 is strictly less than 20%?
class 1

Lab note: remaining at 40 min, 10 µM threshold 20%. Does this molecule come in strictly under it? Cn1cc(-c2cc(NS(C)(=O)=O)ccc2Oc2ccc(F)cc2)n2cncc2c1=O
class 0
